- test target: human TLR9 (Homo sapiens, UniProt Q9NR96)
- Construct: endogenous in cells; host or cells: primary human B cells (CD19 microbeads) from buffy coats of healthy donors
- Sequence (Q9NR96 26-1032): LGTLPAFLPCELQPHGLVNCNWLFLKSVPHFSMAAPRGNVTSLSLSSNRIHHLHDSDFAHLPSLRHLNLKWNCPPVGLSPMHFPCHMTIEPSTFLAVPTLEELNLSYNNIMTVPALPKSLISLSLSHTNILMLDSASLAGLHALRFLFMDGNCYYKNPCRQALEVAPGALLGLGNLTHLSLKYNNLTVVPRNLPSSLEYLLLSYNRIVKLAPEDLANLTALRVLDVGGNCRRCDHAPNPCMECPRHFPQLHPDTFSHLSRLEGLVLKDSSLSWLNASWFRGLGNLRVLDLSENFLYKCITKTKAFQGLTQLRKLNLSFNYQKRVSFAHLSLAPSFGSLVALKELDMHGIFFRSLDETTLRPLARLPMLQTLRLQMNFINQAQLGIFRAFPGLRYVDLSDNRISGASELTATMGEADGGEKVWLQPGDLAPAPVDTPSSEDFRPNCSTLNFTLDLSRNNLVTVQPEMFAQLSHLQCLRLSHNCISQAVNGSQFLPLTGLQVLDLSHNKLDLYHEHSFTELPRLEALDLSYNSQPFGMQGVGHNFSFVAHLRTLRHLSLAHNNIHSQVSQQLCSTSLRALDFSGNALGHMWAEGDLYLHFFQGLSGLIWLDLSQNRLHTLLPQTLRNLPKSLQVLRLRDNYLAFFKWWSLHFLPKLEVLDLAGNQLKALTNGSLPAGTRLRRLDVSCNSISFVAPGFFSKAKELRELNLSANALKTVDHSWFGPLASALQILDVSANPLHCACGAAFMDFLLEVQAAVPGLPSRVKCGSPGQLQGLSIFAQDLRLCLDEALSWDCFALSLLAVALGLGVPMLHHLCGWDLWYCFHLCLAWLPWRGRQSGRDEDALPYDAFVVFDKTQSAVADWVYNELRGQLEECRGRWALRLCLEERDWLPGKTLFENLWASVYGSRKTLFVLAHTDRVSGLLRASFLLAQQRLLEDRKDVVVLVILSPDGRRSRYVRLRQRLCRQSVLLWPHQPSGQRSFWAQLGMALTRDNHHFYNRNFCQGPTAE
- measurement notes: Inhibition of human TLR9 in human B cells (IL-6 ELISA)
- Assay type: cell-based
- run parameters: human B cells, agonist 1018 ISS 1 μM, IL-6 readout, 48 hours; range about 0.01 to 10 μM; read-out: Human TLR9 IC50
pIC50: −log10 of the molar value.
Label Y for high-side pIC50 (at or above 8) and N for low-side pIC50 (below it).

Cc1nnc(N2CCC(C(=O)NCCCN(C)C)CC2)c2nn(C(C)C)c(C)c12 [compound 27] | N
Cc1ccc(-n2nc3c(N4CCCC(C(=O)NCCNC(C)C)C4)nnc(C)c3c2C)cc1 (stereo not shown) [compound 16] | N
CCN(CC)C1CCN(C(=O)C2CCN(c3nnc(C)c4c(C)n(-c5ccc(C)cc5)nc34)CC2)CC1 [compound 43] | Y

Would you say Cc1ccc(-n2nc3c(N4CCC(C(=O)N5CCC6(CC5)CNC6)CC4)nnc(C)c3c2C)cc1 [compound 73] shows pIC50 at minimum 8? N

Would you say Cc1ccc(-n2nc3c(N4CCC(C(=O)NC5CCN(C)C5)CC4)nnc(C)c3c2C)cc1 (stereo not shown) [compound 17] shows pIC50 at minimum 8? N

----------
- test target: human TLR8 (Homo sapiens)
- Construct: endogenous in cells; host or cells: primary human monocytes (CD14 microbeads) from buffy coats of healthy donors
- Sequence (Q9NR97 27-1041): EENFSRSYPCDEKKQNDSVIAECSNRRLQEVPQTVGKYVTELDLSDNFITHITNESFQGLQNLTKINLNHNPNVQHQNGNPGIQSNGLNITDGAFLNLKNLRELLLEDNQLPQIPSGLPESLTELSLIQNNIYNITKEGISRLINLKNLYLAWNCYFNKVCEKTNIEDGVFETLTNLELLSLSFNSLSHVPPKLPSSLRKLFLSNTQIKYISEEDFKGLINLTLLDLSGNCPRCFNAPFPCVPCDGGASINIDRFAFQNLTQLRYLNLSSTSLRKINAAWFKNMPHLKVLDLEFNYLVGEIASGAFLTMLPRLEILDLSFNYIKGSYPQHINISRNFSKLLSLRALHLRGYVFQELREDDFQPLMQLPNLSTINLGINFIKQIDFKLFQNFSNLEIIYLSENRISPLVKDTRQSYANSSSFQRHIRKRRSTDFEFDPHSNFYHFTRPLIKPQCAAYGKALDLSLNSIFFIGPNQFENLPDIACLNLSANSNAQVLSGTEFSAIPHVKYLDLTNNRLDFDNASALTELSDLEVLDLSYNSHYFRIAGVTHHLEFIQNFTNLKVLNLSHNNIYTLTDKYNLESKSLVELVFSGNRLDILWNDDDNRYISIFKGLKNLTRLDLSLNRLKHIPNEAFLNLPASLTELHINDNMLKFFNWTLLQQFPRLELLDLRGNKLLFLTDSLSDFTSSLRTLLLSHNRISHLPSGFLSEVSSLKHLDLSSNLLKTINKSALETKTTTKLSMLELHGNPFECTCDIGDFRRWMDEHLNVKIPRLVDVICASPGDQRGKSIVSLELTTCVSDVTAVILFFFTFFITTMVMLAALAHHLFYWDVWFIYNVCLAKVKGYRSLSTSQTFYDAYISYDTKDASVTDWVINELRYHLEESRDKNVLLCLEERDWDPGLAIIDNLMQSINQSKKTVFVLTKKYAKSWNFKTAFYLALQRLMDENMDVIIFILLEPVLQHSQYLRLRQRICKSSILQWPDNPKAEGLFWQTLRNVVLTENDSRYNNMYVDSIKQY
- measurement notes: Inhibition of human TLR8 in human monocytes (TNF-alpha / IL-1 beta ELISA)
- Format: cell-based
- run parameters: human monocytes, agonist ORN8L 100 μg/mL, TNF-alpha readout, 24 hours; read-out: Human TLR8 IC50 TNF-a
readout label: IC50

Below, each entry is followed by its recorded IC50 result.
Cc1ccc(-n2cc3cnnc(N4CCC(CCC(=O)NCCN(C)C)CC4)c3n2)cc1 | 4.85 µM
Cc1ccc(-n2nc3c(N4CCC(C(=O)NCCN(C)C)CC4)nnc(C)c3c2C(F)(F)F)cc1 | ≥ 20 µM
Cc1ccc(-n2cc3cnnc(N4CCC(C(=O)NCCN5CCOCC5)CC4)c3n2)cc1 | ≥ 20 µM

Give recorded IC50. Cc1ccc(-n2cc3cnnc(N4CCC(C(=O)NCCCN(C)C)CC4)c3n2)cc1 > 10 µM

Give recorded IC50. Cc1ccc(-n2nc3c(N4CCC(C(=O)NC5CCN(C)CC5)CC4)nnc(C)c3c2C)cc1 > 10 µM

Give recorded IC50. Cc1nnc(N2CCC(C(=O)NCCCN(C)C)CC2)c2nn(-c3cccnc3)c(C)c12 ≥ 20 µM

Give recorded IC50. Cc1ccc(-n2nc3c(N4CCC(C(=O)NCCCN(C)C)CC4)nnc(C)c3c2C)cc1 > 10 µM

Give recorded IC50. Cc1ccc(-n2cc3cnnc(N4CCCC(C(=O)NCCN(C)C)C4)c3n2)cc1 (centres unmarked) 2.62 µM

Give recorded IC50. COc1ccc(-n2nc3c(N4CCCC(C(=O)NCCN(C)C)C4)nnc(C)c3c2C)cc1 (centres unmarked) [54x] 0.29 µM

Give recorded IC50. CCN(CC)C1CCN(C(=O)C2CCN(c3nnc(C)c4c(C)n(-c5ccc(C)cc5)nc34)CC2)CC1 ≥ 20 µM

Give recorded IC50. Cc1ccc(-n2nc3c(N4CCC(CC(=O)NCCCN(C)C)CC4)nnc(C)c3c2C)cc1 > 10 µM

Origin of measurements: patent US11370794B2
